Let's look at some compounds and their measured pIC50.
# tested.system: Aurora kinase B (Homo sapiens)
# Sequence (Q96GD4 whole entry): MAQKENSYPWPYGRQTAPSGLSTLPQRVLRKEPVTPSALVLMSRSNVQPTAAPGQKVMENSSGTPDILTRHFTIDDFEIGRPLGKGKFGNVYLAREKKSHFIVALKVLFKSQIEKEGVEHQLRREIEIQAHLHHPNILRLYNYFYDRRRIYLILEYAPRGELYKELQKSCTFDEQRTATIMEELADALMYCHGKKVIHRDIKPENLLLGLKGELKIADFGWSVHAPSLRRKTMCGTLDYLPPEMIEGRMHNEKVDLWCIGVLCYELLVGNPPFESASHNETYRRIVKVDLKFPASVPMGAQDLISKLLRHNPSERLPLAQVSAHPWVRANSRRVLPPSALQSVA
pIC50: −log10 of the molar value.

Qu. pIC50 lookup needed for Cc1cc2nnccc2cc1Nc1ncc2c(n1)n([C@H]1CC[C@](C)(O)CC1)c(=O)n2C [US11884671, Example 17] , thanks.
Ans. < 5.00

Qu. // repeat for Cc1cc2ncccc2cc1Nc1ncc2c(n1)n([C@H]1CC[C@@](C)(O)CC1)c(=O)n2C [US11884671, Example 14] and report
Ans. < 5.00

Qu. Another compound to look at: Cc1cc2nnccc2cc1Nc1ncc2c(n1)n([C@H]1CC[C@@](C)(O)CC1)c(=O)n2C [US11884671, Example 16]
Ans. < 5.00

Qu. Another compound to look at: Cc1cc2ncccc2cc1Nc1ncc2c(n1)n([C@H]1CC[C@](C)(O)CC1)c(=O)n2C [US11884671, Example 15]
Ans. < 5.00
